target: D(2) dopamine receptor (Homo sapiens, UniProt P14416); assay: Binding affinity at cloned human Dopamine receptor D2 expressed in CHO cells, using [125I]iodosulpiride as radioligand
Sequence (P14416 whole entry): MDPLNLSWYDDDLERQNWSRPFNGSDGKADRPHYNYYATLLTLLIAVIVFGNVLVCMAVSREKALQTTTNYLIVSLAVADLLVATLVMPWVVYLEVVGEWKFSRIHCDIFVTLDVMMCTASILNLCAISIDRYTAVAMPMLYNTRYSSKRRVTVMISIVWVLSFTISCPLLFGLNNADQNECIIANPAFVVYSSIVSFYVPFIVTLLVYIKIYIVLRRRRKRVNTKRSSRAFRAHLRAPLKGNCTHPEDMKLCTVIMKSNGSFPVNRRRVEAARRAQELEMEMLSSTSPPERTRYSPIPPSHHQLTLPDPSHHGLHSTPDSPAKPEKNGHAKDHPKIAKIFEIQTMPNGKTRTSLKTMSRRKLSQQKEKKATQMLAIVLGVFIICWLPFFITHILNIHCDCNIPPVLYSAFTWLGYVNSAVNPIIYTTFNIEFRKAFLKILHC
log10 of Ki listing for selected compounds.
readout-kind: log10 of Ki (log10 of the value in nM)

>  <compound>
CCCC(C)(C)C(=O)NCCCCN1CCN(c2ccc(Cl)cc2)CC1

>  <recorded-measurement>
3.20

$$$$
>  <compound>
CC(C)(C)C(=O)NCCCCN1CCN2c3ccc(Cl)cc3CCC2C1 (stereo not given)

>  <recorded-measurement>
2.60

$$$$
>  <compound>
O=C(NCCN1CCN(c2ccc(Cl)cc2)CC1)C12CC3CC(CC(C3)C1)C2

>  <recorded-measurement>
2.60

$$$$
>  <compound>
CC(C)(C)C(=O)NCCCCN1CCN(c2ccc(Br)cc2)CC1

>  <recorded-measurement>
3.20

$$$$
>  <compound>
COc1cc(Cl)ccc1N1CCN(CCCCNC(=O)C(C)(C)C)CC1

>  <recorded-measurement>
2.20

$$$$
>  <compound>
CC(C)(C)C(=O)NCCCCN1CCN(c2ccc(C(F)(F)F)cc2)CC1

>  <recorded-measurement>
3.60

$$$$
>  <compound>
CC(C)(C)C(=O)NCCCCN1CCN(c2cccc(Cl)c2)CC1

>  <recorded-measurement>
2.40

$$$$
>  <compound>
CC(C)(C)C(=O)NCCCCN1CCN(c2ccc(Cl)cc2)CC1

>  <recorded-measurement>
3.40

$$$$
>  <compound>
CCCC(C)(C)C(=O)NCCN1CCN(c2ccc(Cl)cc2)CC1

>  <recorded-measurement>
3.40

$$$$
>  <compound>
CCCCC(C)(C)C(=O)NCCN1CCN(c2ccc(Cl)cc2)CC1

>  <recorded-measurement>
3.20

$$$$
>  <compound>
CC1CN(CCCCNC(=O)C(C)(C)C)CCN1c1ccc(Cl)cc1 (stereo not given)

>  <recorded-measurement>
3.20

$$$$
>  <compound>
CC(C)(C)C(=O)NCCN1CCN(c2ccc(Cl)cc2)CC1

>  <recorded-measurement>
3.40

$$$$
>  <compound>
CC(C)(C)C(=O)NCCCCCN1CCN(c2ccc(Cl)cc2)CC1

>  <recorded-measurement>
2.60

$$$$
>  <compound>
O=C(NCCCCN1CCN(c2ccc(Cl)cc2)CC1)C12CC3CC(CC(C3)C1)C2

>  <recorded-measurement>
2.80

$$$$
